Data origin: ChEMBL document CHEMBL3351814

Experimental Target: Neuromedin-U receptor 1 (Homo sapiens) (UniProt Q9HB89)
Sequence (Q9HB89 whole entry): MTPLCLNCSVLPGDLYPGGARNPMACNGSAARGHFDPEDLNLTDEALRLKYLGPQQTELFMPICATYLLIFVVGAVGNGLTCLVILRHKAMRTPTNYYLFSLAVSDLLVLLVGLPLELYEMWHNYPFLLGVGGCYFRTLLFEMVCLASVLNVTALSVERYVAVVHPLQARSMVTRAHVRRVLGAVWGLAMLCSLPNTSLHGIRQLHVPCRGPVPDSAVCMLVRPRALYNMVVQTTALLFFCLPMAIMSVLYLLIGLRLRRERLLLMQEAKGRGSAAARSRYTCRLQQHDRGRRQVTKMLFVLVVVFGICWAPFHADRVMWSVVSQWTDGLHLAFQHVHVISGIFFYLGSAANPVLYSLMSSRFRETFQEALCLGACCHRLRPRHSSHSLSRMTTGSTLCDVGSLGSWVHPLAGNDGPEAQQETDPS
Test Details: Agonist activity at human NMUR1 expressed in HEK293 cells at 1 to 100 nM by calcium mobilization assay relative to NMU
Assay type: functional, cell-based
The source made the active and inactive calls. The rule behind the calls is not given here. Where a SMILES comes first, the peptide text is derived from it. [ ]: non-standard residue; d: D form. The star is where a group is joined. Propanoyl(3-(3-pyridyl)) = O=C(CCc1cccnc1)*; Acetyl(pyridin-2-yl) = O=C(Cc1ccccn1)*; 2Nal = N[C@@H](Cc1ccc2ccccc2c1)C(=O)O; Hydrocinnamoyl = O=C(CCc1ccccc1)*; Quinaldoyl = O=C(c1ccc2ccccc2n1)*; Tic = O=C(O)[C@@H]1Cc2ccccc2CN1; Pip = O=C(O)[C@@H]1CCCCN1
Choose the fitting class; nothing outside active, inactive is accepted.

Answered cases to consult:
# Compound, Assigned Class
records = [
    ("CC(C)C[C@H](NC(=O)CCc1ccccc1)C(=O)N[C@@H](Cc1ccccc1)C(=O)N[C@@H](CCCNC(=N)N)C(=O)N1CCC[C@H]1C(=O)N[C@@H](CCCNC(=N)N)C(=O)N[C@@H](CC(N)=O)C(N)=O (Hydrocinnamoyl-LFRPRN-NH2)", "active"),
    ("N=C(N)NCCC[C@H](NC(=O)[C@@H]1CCCN1C(=O)[C@H](CCCNC(=N)N)NC(=O)[C@H](Cc1ccccc1)NC(=O)[C@H](Cc1c[nH]c2ccccc12)NC(=O)CCc1cccnc1)C(=O)N[C@@H](CC(N)=O)C(N)=O ({Propanoyl(3-(3-pyridyl))}-WFRPRN-NH2)", "active"),
    ("N=C(N)NCCC[C@H](NC(=O)[C@@H]1CCCN1C(=O)[C@H](CCCNC(=N)N)NC(=O)[C@H](Cc1ccccc1)NC(=O)[C@H](Cc1ccccc1)NC(=O)Cc1ccccn1)C(=O)N[C@@H](CC(N)=O)C(N)=O ({Acetyl(pyridin-2-yl)}-FFRPRN-NH2)", "active"),
]

Hi team, can someone confirm the assay call for N=C(N)NCCC[C@H](NC(=O)[C@@H]1CCCN1C(=O)[C@H](CCCNC(=N)N)NC(=O)[C@H](Cc1ccccc1)NC(=O)[C@H](Cc1ccc2ccccc2c1)NC(=O)CCc1cccnc1)C(=O)N[C@@H](CC(N)=O)C(N)=O ({Propanoyl(3-(3-pyridyl))}-[2Nal]FRPRN-NH2) ?
active

Entry to check: CC(C)C[C@H](NC(=O)CCc1ccccc1)C(=O)N[C@@H](Cc1ccccc1)C(=O)N[C@@H](CCCNC(=N)N)C(=O)N1CCC[C@H]1C(=O)N[C@@H](CCCNC(=N)N)C(=O)N[C@@H](CC(=O)O)C(N)=O (Hydrocinnamoyl-LFRPRD-NH2)
inactive

Entry to check: CC(C)C[C@H](NC(=O)CCc1ccccc1)C(=O)N[C@@H](Cc1ccccc1)C(=O)N[C@@H](CCCNC(=N)N)C(=O)N1CCCC[C@H]1C(=O)N[C@@H](CCCNC(=N)N)C(=O)N[C@@H](CC(N)=O)C(N)=O (Hydrocinnamoyl-LFR[Pip]RN-NH2)
active

Entry to check: N=C(N)NCCC[C@H](NC(=O)[C@@H]1CCCN1C(=O)[C@H](CCCNC(=N)N)NC(=O)[C@H](Cc1ccccc1)NC(=O)[C@H](Cc1ccccc1)NC(=O)c1ccc2ccccc2n1)C(=O)N[C@@H](CC(N)=O)C(N)=O (Quinaldoyl-FFRPRN-NH2)
inactive

Entry to check: CC(C)C[C@H](NC(=O)[C@@H]1Cc2ccccc2CN1)C(=O)N[C@@H](Cc1ccccc1)C(=O)N[C@@H](CCCNC(=N)N)C(=O)N1CCC[C@H]1C(=O)N[C@@H](CCCNC(=N)N)C(=O)N[C@@H](CC(N)=O)C(N)=O (H-[Tic]LFRPRN-NH2)
active
